Test system: Zea mays
Experiment: Greenhouse post-emergence herbicidal activity on crop ZEAMX (corn, maize)
Assay type: in vivo
Parameters: key: 0 = no damage/normal growth, 100 = no emergence or complete destruction
Conditions: ZEAMX (corn, crop), 0.031 kg/ha, scale 0 to 100
MEASURED_QUANTITY: Herbicidal activity
Write the value as a bare number.

{"SMILES_DATA": "CN(C)S(=O)(=O)Oc1c(Cl)ccc(C2=C(O)c3ncccc3C(C)(C)S2(=O)=O)c1Cl", "Herbicidal activity": 0}

Please supply the value of reported Herbicidal activity for the item CC1(C)c2cccnc2C(O)=C(c2ccc(Cl)c(N(C3CC3)S(C)(=O)=O)c2Cl)S1(=O)=O
5

Note Herbicidal activity for the compound shown: CN(c1cccc(C2=C(OC(=O)C(C)(C)C)c3ncccc3C(C)(C)S2(=O)=O)c1Cl)S(C)(=O)=O
0

Complete the entry with Herbicidal activity for CN(c1ccc(Cl)c(C2=C(O)c3ncccc3CS2(=O)=O)c1Cl)S(C)(=O)=O
0

Hello, the source for this data is patent US10023590B2, in case you need it.
